target: human Cot catalytic domain (30-397 amino acids) (Homo sapiens, UniProt P41279); construct: Purified recombinant human Cot catalytic domain (30-397 amino acids) was purchased from Cama Biosciences; purchased Cama Biosciences (so in the source); experiment: High Throughput Cot Biochemical Assay (KinEASE TR-FRET); settings: Cot KinEASE TR-FRET, 400 μM ATP; read-out: IC50 HTRF
Sequence (P41279 30-397): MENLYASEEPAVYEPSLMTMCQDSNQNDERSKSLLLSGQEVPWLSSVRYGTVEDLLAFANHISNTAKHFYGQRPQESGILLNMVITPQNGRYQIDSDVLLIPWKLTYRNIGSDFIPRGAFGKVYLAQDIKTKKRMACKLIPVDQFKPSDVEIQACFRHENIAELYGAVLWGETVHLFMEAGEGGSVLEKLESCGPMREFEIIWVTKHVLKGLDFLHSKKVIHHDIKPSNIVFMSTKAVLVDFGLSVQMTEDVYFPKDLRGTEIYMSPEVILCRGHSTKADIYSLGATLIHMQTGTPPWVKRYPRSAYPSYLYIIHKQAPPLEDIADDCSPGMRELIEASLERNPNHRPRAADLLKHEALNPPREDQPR
log10 of IC50 by entry:
Scale: decimal log of IC50, IC50 in nM.

Reported log10 of IC50, compound Cc1c(-c2cccnc2)cccc1[C@H](Nc1cc(C#N)c2ncc(C#N)c(NCC(C)(C)C)c2c1)c1cn(C2(C(F)(F)F)CC2)nn1 [Example 1136] : ____
0.60

Reported log10 of IC50, compound Cc1c(-c2ncco2)cccc1[C@H](Nc1cc(Cl)c2ncc(C#N)c(NCC(C)(C)C)c2c1)c1cn(C2(C(F)F)CC2)nn1 [Example 1051] : ____
0.60

Reported log10 of IC50, compound CCN1CCC(n2cc(C(Nc3cc(Cl)c4ncc(C#N)c(Nc5ccc(F)c(Cl)c5)c4c3)c3ccc(OC(F)(F)F)cc3)nn2)CC1 (stereo not drawn) [Example 898] : ____
1.60

Reported log10 of IC50, compound CCN1CCC(n2cc(C(Nc3cc(Cl)c4ncc(C#N)c(Nc5ccc(F)c(Cl)c5)c4c3)c3ccc(C)cc3)nn2)CC1 (stereo not drawn) [Example 917] : ____
1.36

Reported log10 of IC50, compound CC(C)(C)CNc1c(C#N)cnc2c(C#N)cc(N[C@@H](c3ccc(F)cc3)c3cn(C4(c5cccnn5)CC4)nn3)cc12 [Example 987] : ____
1.51

Reported log10 of IC50, compound [2H][C@](Nc1cc(Cl)c2ncc(C#N)c(Nc3cccc(Cl)c3OC(F)(F)F)c2c1)(c1ccc(F)cc1)c1cn(C2CC2)nn1 [Example 966] : ____
1.93
